All figures here come from PubChem BioAssay AID1963973.

- Tested on: 883617-216-R-J1-PDC tumor spheroids, viability;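 note: spheroids exposed to agents for 7 days before the viability read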
- MEASUREMENT_PROTOCOL: Anticancer human tumor 883617-216-R-J1-PDC patient-derived bladder carcinoma cell line growth inhibition [PI3K]
- APPLIED_CONDITIONS: second compound 1 µM; first compound 1 µM; stronger effect = lower value; spheroids with HUVEC and MSC
The label is met for viability, T/C below 20% and not met for viability, T/C equal to or exceeding 20%.

Take a look at these entries with their results.
molecule="CC1(C)CCC(CN2CCN(c3ccc(C(=O)NS(=O)(=O)c4ccc(NCC5CCOCC5)c([N+](=O)[O-])c4)c(Oc4cnc5[nH]ccc5c4)c3)CC2)=C(c2ccc(Cl)cc2)C1 + Cc1nc(NC(=O)N2CCCC2C(N)=O)sc1-c1ccnc(C(C)(C)C(F)(F)F)c1" assigned_category="not met"
molecule="C#Cc1c(F)ccc2cc(O)cc(-c3ncc4c(N5CC6CCC(C5)N6)nc(OCC56CCCN5CC(F)C6)nc4c3F)c12 (stereo not given) + COc1c(OCCCN2CCOCC2)ccc2c3n(c(=NC(=O)c4cnc(N)nc4)nc12)CCN3" assigned_category=met

Prompt: Is it true that viability, T/C reported for CC(C)NCC(C(=O)N1CCN(c2ncnc3c2C(C)CC3O)CC1)c1ccc(Cl)cc1 (stereo not given) + CC(Nc1ncnc2nc[nH]c12)c1cc2cccc(Cl)c2c(=O)n1-c1ccccc1 is less than 20%?
Completion: not met

Prompt: Could you please tell me whether viability, T/C recorded for Cn1nccc1Nc1nccc(-c2ccn(C(CO)c3ccc(Cl)c(F)c3)c(=O)c2)n1 (stereo not given) + CC(Nc1ncnc2nc[nH]c12)c1cc2cccc(Cl)c2c(=O)n1-c1ccccc1 is less than 20%?
Completion: not met

Prompt: Check if viability, T/C falls below 20% for CC(Cn1ccc(-c2ccc(C#N)c(Cl)c2)n1)NC(=O)c1cc(C(C)O)[nH]n1 (stereo not given) + CC(Nc1ncnc2nc[nH]c12)c1cc2cccc(Cl)c2c(=O)n1-c1ccccc1 .
Completion: not met

Prompt: I wonder whether CC(Cn1ccc(-c2ccc(C#N)c(Cl)c2)n1)NC(=O)c1cc(C(C)O)[nH]n1 (stereo not given) + COc1c(OCCCN2CCOCC2)ccc2c3n(c(=NC(=O)c4cnc(N)nc4)nc12)CCN3 has viability, T/C below 20%. Can you tell?
Completion: met

Prompt: is_below(viability, T/C, 20%) for C=CC(=O)N1CCN(c2nc(=O)n(-c3c(C)ccnc3C(C)C)c3nc(-c4c(O)cccc4F)c(F)cc23)C(C)C1 (stereo not given) + Cc1nc(NC(=O)N2CCCC2C(N)=O)sc1-c1ccnc(C(C)(C)C(F)(F)F)c1 ?
Completion: met
